tested on: HEK-293T; experiment: Multiplex assay against HEK293T; type: toxicity, cell-based; conditions: human, 12 h, 10 µM, compound concentration 10 uM, replicate 1
reported_metric: Population Apoptotic (%)
Reply numerically in %, unit not repeated.

Please give the measured Population Apoptotic (%) for this molecule: `O=C(O)c1cc2ccccc2c(Cc2c(O)c(C(=O)O)cc3ccccc23)c1O` 34

Please give the measured Population Apoptotic (%) for this molecule: Cl.Clc1ccc2nsnc2c1NC1=NCCN1 [TIZANIDINE HYDROCHLORIDE] 30

Please give the measured Population Apoptotic (%) for this molecule: `C[C@@H]1C[C@H]2[C@@H]3CCC4=CC(=O)C=C[C@]4(C)[C@@]3(F)[C@@H](O)C[C@]2(C)[C@@]1(O)C(=O)CO` 37

Please give the measured Population Apoptotic (%) for this molecule: `CCOc1c2c(c(OCC)c3ncccc13)CN(c1ccc(CS(=O)(=O)NC(=O)Cc3ccccc3OC)cc1C)C2=O` 45

Please give the measured Population Apoptotic (%) for this molecule: `COc1ccccc1N1CCN(CCCCNC(=O)c2ccc3ccccc3c2)CC1.Cl` 71

* * *

system: U2OS; assay: Multiplex assay against U2OS; assay type: toxicity, cell-based; conditions: human, 12 h, 10 µM, compound concentration 10 uM, replicate 2
reported_metric: Population Tubulin-Different-Phenotype (%)
Dear colleague, please send the value followed by its unit.

Please give the measured Population Tubulin-Different-Phenotype (%) for this molecule: `C[C@H]1[C@H]2CC[C@H]3[C@@H]4CC=C5C[C@@H](N(C)C)CC[C@]5(C)[C@H]4CC[C@]23CN1C` 6%

Please give the measured Population Tubulin-Different-Phenotype (%) for this molecule: `CN(C)c1ccnc2sc3c(=O)n(N4CCCCCC4)cnc3c12` 22%

* * *

The following molecules are shown together with reported Population Normal (%) values.
system: HEK-293T; experiment: Multiplex assay against HEK293T; type: toxicity, cell-based; conditions: human, 48 h, 1 µM, compound concentration 1 uM, replicate 1
Reply numerically in %, unit not repeated.

Solved cases below.
CN(C)c1ccnc2sc3c(=O)n(N4CCCCCC4)cnc3c12: 97
CCOc1c2c(c(OCC)c3ncccc13)CN(c1ccc(CS(=O)(=O)NC(=O)Cc3ccccc3OC)cc1C)C2=O: 96
N[C@@]1(C(=O)O)CO[C@H]2[C@H](C(=O)O)[C@H]21: 97

Please give the measured Population Normal (%) for this molecule: `CC(C)(C)c1ccc(S(=O)(=O)Nc2ccc(Cl)cc2C(=O)c2cc[n+]([O-])cc2)cc1` 97

Please give the measured Population Normal (%) for this molecule: `Oc1c(CN2CCN(c3ccccn3)CC2)cc(Cl)c2cccnc12` 96

Please give the measured Population Normal (%) for this molecule: `O=C1COc2nccc(-c3ccccc3F)c2CN1Cc1cc(C(F)(F)F)cc(C(F)(F)F)c1` 97

Please give the measured Population Normal (%) for this molecule: `CC[C@H]1OC(=O)[C@H](C)[C@@H](O[C@H]2C[C@@](C)(OC)[C@@H](O)[C@H](C)O2)[C@H](C)[C@@H](O[C@@H]2O[C@H](C)C[C@H](N(C)C)[C@H]2O)[C@@]2(C)CC(C)=C(O2)[C@H](C)[C@@H](O)[C@]1(C)O` 91

Please give the measured Population Normal (%) for this molecule: `COc1cc(C(=O)N(CCCc2ccccc2)Cc2ccc(CC(=O)O)cc2)cc(OC)c1C` 98

Please give the measured Population Normal (%) for this molecule: `COc1ccccc1N1CCN(CCCCNC(=O)c2ccc3ccccc3c2)CC1.Cl` 96

Please give the measured Population Normal (%) for this molecule: `CN1CCN(c2nc3cc(C(F)(F)F)ccc3n3cccc23)CC1.O=C(O)/C=C\C(=O)O.O=C(O)/C=C\C(=O)O` 96

Please give the measured Population Normal (%) for this molecule: `Cc1ccc(F)cc1C(=O)Nc1ccc(C(=O)N2Cc3cccn3Cc3ccccc32)c(Cl)c1` 97
